Test system: NCI-H596
ASSAY_REMARKS: relative viability (nuclei count vs DMSO), 5 days (fraction); higher = more cells survive
STUDY_CONDITIONS: first compound 0.1265 µM
REPORTED_ENDPOINT: relative viability
Give bare numbers.

Before answering, review these 5 worked examples.
C[C@@H]1CN(CC(=O)Nc2ccc3c(c2)Cc2cccc(-c4cc(=O)cc(N5CCOCC5)o4)c2S3)C[C@H](C)O1 + O=C(c1cc(Cc2n[nH]c(=O)c3ccccc23)ccc1F)N1CCN(C(=O)C2CC2)CC1 [Olaparib] (partner 8 µM) | 0.624
COc1cc(N2CCC(C(N)=O)CC2)ccc1Nc1nc(N)c(Cl)c(Nc2ccccc2S(=O)(=O)C(C)C)n1 [HG-5-88-01] + CS(=O)(=O)CCNCc1ccc(-c2ccc3ncnc(Nc4ccc(OCc5cccc(F)c5)c(Cl)c4)c3c2)o1 [Lapatinib] (partner 2 µM) | 1.03
Clc1ccc(Nc2nnc(Cc3ccncc3)c3ccccc23)cc1 [Vatalanib] + C[C@@H](Oc1cc(-c2cnn(C3CCNCC3)c2)cnc1N)c1c(Cl)ccc(F)c1Cl [Crizotinib] (partner 1 µM) | 1.02
C[C@@H]1CN(CC(=O)Nc2ccc3c(c2)Cc2cccc(-c4cc(=O)cc(N5CCOCC5)o4)c2S3)C[C@H](C)O1 + CCNC(=O)c1noc(-c2cc(C(C)C)c(O)cc2O)c1-c1ccc(CN2CCOCC2)cc1 [Luminespib] (partner 0.01 µM) | 1.18
COc1cc(N2CCC(C(N)=O)CC2)ccc1Nc1nc(N)c(Cl)c(Nc2ccccc2S(=O)(=O)C(C)C)n1 [HG-5-88-01] + C[C@@H](Oc1cc(-c2cnn(C3CCNCC3)c2)cnc1N)c1c(Cl)ccc(F)c1Cl [Crizotinib] (partner 1 µM) | 1.04

Give one value of relative viability per listed compound.
1. C[C@@H]1CN(CC(=O)Nc2ccc3c(c2)Cc2cccc(-c4cc(=O)cc(N5CCOCC5)o4)c2S3)C[C@H](C)O1 + COc1cccc2cc(-c3nc([C@H]4CC[C@H](C(=O)O)CC4)n4ncnc(N)c34)[nH]c12 [OSI-027] (partner 0.5 µM)
2. COc1cc(N2CCC(C(N)=O)CC2)ccc1Nc1nc(N)c(Cl)c(Nc2ccccc2S(=O)(=O)C(C)C)n1 [HG-5-88-01] + CC(=O)Nc1cccc(-n2c(=O)n(C3CC3)c(=O)c3c(Nc4ccc(I)cc4F)n(C)c(=O)c(C)c32)c1 [Trametinib] (partner 0.02 µM)
3. COc1cc(N2CCC(C(N)=O)CC2)ccc1Nc1nc(N)c(Cl)c(Nc2ccccc2S(=O)(=O)C(C)C)n1 [HG-5-88-01] + Cc1nc(Nc2ncc(C(=O)Nc3c(C)cccc3Cl)s2)cc(N2CCN(CCO)CC2)n1 [Dasatinib] (partner 0.075 µM)

Result ::
0.931
0.794
0.494

Given item COc1cc(N2CCC(C(N)=O)CC2)ccc1Nc1nc(N)c(Cl)c(Nc2ccccc2S(=O)(=O)C(C)C)n1 [HG-5-88-01] + CC(C)C[C@H](NC(=O)[C@H](Cc1ccccc1)NC(=O)c1cnccn1)B(O)O [Bortezomib] (partner 0.002 µM) , the value recorded as its relative viability is 0.948
